Assay: NCI Yeast Anticancer Drug Screen. Data for the sgs1 mgt1 strain (AID 161);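 note: 0% = growth of cultures given vehicle only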
Settings: S. cerevisiae sgs1 mgt1 strain, at 50.0 µM, active compounds read high
About 79,000 compounds went through this panel and 15% of them were active in at least one assay; those are over-represented in the sample as a whole.
I'd appreciate it if you could supply growth inhibition values for the items below.
Field format: number, assumed %, no unit text.

Q: # get_value(readout='growth inhibition', item= CCN(CC)CCn1c(=O)n(C)c2ccccc21 )
Result: -13.3

Q: # get_value(readout='growth inhibition', item= CCC(O)C[As](=O)(O)c1ccccc1OC (configuration not stated) )
Result: 2

Q: # get_value(readout='growth inhibition', item= C/C(CC(C)(C)N1CC1)=N\N )
Result: -7.75

Q: # get_value(readout='growth inhibition', item= CCOP(=S)(NCCCOC)OCC )
Result: 12.3

Q: # get_value(readout='growth inhibition', item= COc1cc2c(c(OC)c1O)-c1ccc(OC)c(=O)cc1[C@@H](NC(=O)C(F)(F)F)CC2 )
Result: -3.25

Q: # get_value(readout='growth inhibition', item= O=[N+]([O-])c1ccc(O)c(C=NCCN=Cc2cc([N+](=O)[O-])ccc2O)c1.[Zn+2] )
Result: -6.05

Q: # get_value(readout='growth inhibition', item= O=c1[nH]cnc2c1ncn2-c1ccc(N(CCCl)CCCl)cc1 )
Result: 16

Q: # get_value(readout='growth inhibition', item= O=C1N=NC(Cl)c2ccccc21 (configuration not stated) )
Result: -19.1

Q: # get_value(readout='growth inhibition', item= O=C(Nc1cccc(S(=O)(=O)F)c1)/C(=C/c1ccc([N+](=O)[O-])cc1)c1ccccc1 )
Result: 86.7

Q: # get_value(readout='growth inhibition', item= O=C1CN=C(c2ccccc2)c2ccncc2N1 )
Result: 12.6

Q: # get_value(readout='growth inhibition', item= O=C(O)[C@H](O)[C@@H](O)C(=O)O.[Pb] )
Result: -2.9

Q: # get_value(readout='growth inhibition', item= CCC1CCC2CCCC(C)N12 (configuration not stated) )
Result: -3.2

###

Assay: NCI Yeast Anticancer Drug Screen. Data for the sgs1 mgt1 strain (AID 161);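 note: 0% = growth of cultures given vehicle only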
Details: S. cerevisiae sgs1 mgt1 strain, at 50.0 µM, active compounds read high
About 79,000 compounds went through this panel and 15% of them were active in at least one assay; those are over-represented in the sample as a whole. Where a SMILES comes first, the peptide text is derived from it. [ ]: non-standard residue; d: D form. ξ: configuration not given here. ξPhe(4-N(CH2CH2Cl)2) = NC(Cc1ccc(N(CCCl)CCCl)cc1)C(=O)O
observationType: growth inhibition (%)
Field format: number, assumed %, no unit text.

Q: # get_value(readout='growth inhibition', item= CCN1C(=O)C(C)C(=O)N(C)C1=O (centres undefined) )
Result: 0.9

Q: # get_value(readout='growth inhibition', item= O=S(=O)(O)O.[In] )
Result: 39.1

Q: # get_value(readout='growth inhibition', item= ClC1CC2CC1C1CNCC21 (centres undefined) )
Result: -4.05

Q: # get_value(readout='growth inhibition', item= NC(=O)C[N+](=O)[O-] )
Result: -11.4

Q: # get_value(readout='growth inhibition', item= CC(Cc1ccc(O)cc1)NCC(O)c1cc(O)cc(O)c1 (centres undefined) )
Result: 6.95

Q: # get_value(readout='growth inhibition', item= O=[As](O)(O)c1ccc(N=Nc2ccccc2)cc1 )
Result: -6.05

Q: # get_value(readout='growth inhibition', item= CN(C)C(=S)Oc1cc(Cl)c(S(=O)(=O)F)cc1Cl )
Result: 99.2

Q: # get_value(readout='growth inhibition', item= CN(C)CCN1C(=O)CN=C(c2ccccc2Cl)c2cc(Cl)ccc21 )
Result: 27

Q: # get_value(readout='growth inhibition', item= O=S(=O)(c1ccc(O)cc1)c1ccccc1O )
Result: 15.2

Q: # get_value(readout='growth inhibition', item= O=[As](O)(O)CC(Br)CBr (centres undefined) )
Result: 5.95

Q: # get_value(readout='growth inhibition', item= NC1=C(c2nc(-c3cc4ccccc4oc3=O)cs2)C(c2ccco2)c2c(c3ccccc3oc2=O)O1 (centres undefined) )
Result: -21.4

Q: # get_value(readout='growth inhibition', item= S=C(N=Nc1ccccc1)NNc1ccccc1.[Zn+2] )
Result: 19.4

Q: # get_value(readout='growth inhibition', item= CC1=CC2OC3CC4OC(=O)/C=C/C=C/C(C(C)O)OCC/C(C)=C/C(=O)OCC2(CC1)C4(C)C31CO1 (centres undefined) )
Result: 93.3

Q: # get_value(readout='growth inhibition', item= OC1(c2ccccc2)N=C(c2ccccc2)c2ccccc2-n2cccc21 (centres undefined) )
Result: -14.5

Q: # get_value(readout='growth inhibition', item= S=C([S-])N1CCCCC1.S=C([S-])N1CCCCC1.[Zn] )
Result: 96

Q: # get_value(readout='growth inhibition', item= COC1OOC(OC)c2ccccc2-c2ccccc21 (centres undefined) )
Result: 4.1

Q: # get_value(readout='growth inhibition', item= Cc1ccc(C)c(C(C)NC2=NCCO2)c1 (centres undefined) )
Result: -11.7

Q: # get_value(readout='growth inhibition', item= CC[N+](C)(C)c1ccc(C)c(OC(=O)NC)c1 )
Result: -0.2

Q: # get_value(readout='growth inhibition', item= [N-]=[N+]=Nc1ccnc2cc(Cl)ccc12 )
Result: -9.05

Q: # get_value(readout='growth inhibition', item= Cc1cc[n+](C)c(Cc2ccccc2)c1C )
Result: -8.9

Q: # get_value(readout='growth inhibition', item= Nc1ccc(CCc2ccc(S(=O)(=O)F)cc2)cc1 )
Result: 98.3

Q: # get_value(readout='growth inhibition', item= O=S(=O)(F)c1ccccc1C[P+](c1ccccc1)(c1ccccc1)c1ccccc1 )
Result: 66

Q: # get_value(readout='growth inhibition', item= CC(C)N=Cc1ccccc1O.CC(C)N=Cc1ccccc1O.[Ni] )
Result: 48.6

Q: # get_value(readout='growth inhibition', item= CCOC(=O)C(Cc1ccc(N(CCCl)CCCl)cc1)NC(=O)C(Cc1ccccc1)NC(=O)C(NC(=O)CNC(=O)C1CCCN1)C(C)C (centres undefined) (H-PGVF[ξPhe(4-N(CH2CH2Cl)2)]-OEt; configuration not given here) )
Result: 20.3
